Data credit: ChEMBL document CHEMBL1146556

Target: Tyrosinase (Homo sapiens, UniProt P14679)
Sequence (P14679 whole entry): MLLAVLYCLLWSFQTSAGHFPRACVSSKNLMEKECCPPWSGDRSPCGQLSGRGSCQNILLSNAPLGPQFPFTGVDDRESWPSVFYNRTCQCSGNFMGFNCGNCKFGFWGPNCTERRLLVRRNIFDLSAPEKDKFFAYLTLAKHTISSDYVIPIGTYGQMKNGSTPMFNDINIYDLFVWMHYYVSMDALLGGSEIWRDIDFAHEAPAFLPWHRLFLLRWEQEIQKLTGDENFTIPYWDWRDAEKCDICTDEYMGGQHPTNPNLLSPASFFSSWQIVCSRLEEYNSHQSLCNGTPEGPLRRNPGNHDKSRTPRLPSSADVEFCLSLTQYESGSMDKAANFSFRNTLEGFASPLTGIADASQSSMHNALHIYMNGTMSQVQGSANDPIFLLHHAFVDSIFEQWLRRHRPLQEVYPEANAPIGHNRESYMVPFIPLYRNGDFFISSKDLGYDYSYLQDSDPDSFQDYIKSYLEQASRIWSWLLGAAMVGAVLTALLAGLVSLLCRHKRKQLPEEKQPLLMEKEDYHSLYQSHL
Test: Inhibition of tyrosinase
Property Label: IC50 (µM)

Smiles Str: COc1c(CC=C(C)C)c(O)c([C@H](CC(C)C)c2c(O)c(CC=C(C)C)c(O)c(C(C)=O)c2O)c(O)c1C(C)=O
Measurement: 333
